- Tested on: Escherichia coli IAI1
- Test name: fold change of Putrescine concentration vs plate DMSO controls (fold change (ratio)); higher = more amine produced, active = hit call of the paper (significant change in both replicates, either direction)
- Condition details: incubation time: 27 h, anaerobic, 37 °C
Where a name gives a salt, the structure may show the parent alone.
Please use satisfied whenever fold change of Putrescine concentration is not below 1, and not satisfied whenever it is.

{"Compound": "N=C(N)NCc1cccc(I)c1 [Iobenguane sulfate] (20 µM)", "Category label": "not satisfied"}
{"Compound": "CC[C@H](C)C(=O)O[C@H]1C[C@H](O)C=C2C=C[C@H](C)[C@H](CC[C@@H](O)C[C@@H](O)CC(=O)O)[C@H]21 [Pravastatin] (20 µM)", "Category label": "satisfied"}
{"Compound": "CCN(CC)CCOCCOC(=O)C1(c2ccccc2)CCCC1 [Carbetapentane citrate] (20 µM)", "Category label": "not satisfied"}
{"Compound": "CN[C@@H]1[C@H](O)[C@H](NC)[C@H]2O[C@@]3(O)C(=O)C[C@@H](C)O[C@H]3O[C@@H]2[C@H]1O [Spectinomycin dihydrochloride] (20 µM)", "Category label": "not satisfied"}

###

- System: Ruminococcus gnavus DSM 108212
- Test name: fold change of Tryptamine concentration vs plate DMSO controls (fold change (ratio)); higher = more amine produced, active = hit call of the paper (significant change in both replicates, either direction);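 for the amine columns active = adjusted P below 0.05 in both replicates with a change the same way and a mean fold change under 0.8 or over 1.25; inactive = the rest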
- Condition details: incubation time: 27 h, anaerobic, 37 °C
Where a name gives a salt, the structure may show the parent alone.
Outcome codes: True (active), False (inactive)

{"Compound": "O=C(NCCO[N+](=O)[O-])c1cccnc1 [Nicorandil] (20 µM)", "Category label": "False"}
{"Compound": "Cc1ccc(Cl)c(Nc2ccccc2C(=O)O)c1Cl [Meclofenamic acid sodium salt monohydrate] (20 µM)", "Category label": "False"}
{"Compound": "CCN(CC)CCOCCOC(=O)C(CC)(CC)c1ccccc1 [Oxeladin citrate] (20 µM)", "Category label": "False"}
{"Compound": "CCC(Cc1c(I)cc(I)c(N)c1I)C(=O)O (configuration not stated) [Iopanoic acid] (20 µM)", "Category label": "False"}
{"Compound": "CCOc1ccc2c(c1)C(C)=CC(C)(C)N2 [Ethoxyquin] (20 µM)", "Category label": "False"}
{"Compound": "CN(C)CCCSC(=N)N [Dimaprit dihydrochloride] (20 µM)", "Category label": "False"}
{"Compound": "CN(Cc1cc(Br)cc(Br)c1N)C1CCCCC1 [Bromhexine hydrochloride] (20 µM)", "Category label": "False"}
{"Compound": "CC[N+]1(CC)CCC(=C(c2ccccc2)c2ccccc2)C1C (configuration not stated) [Prifinium Bromide] (20 µM)", "Category label": "False"}
{"Compound": "Nc1ccc2cc3ccc(N)cc3nc2c1 [Proflavine hemisulfate] (20 µM)", "Category label": "False"}
{"Compound": "C=CCOC(Cn1ccnc1)c1ccc(Cl)cc1Cl (configuration not stated) [Enilconazole] (20 µM)", "Category label": "False"}
{"Compound": "CC(C)(C)NC[C@H](O)COc1nsnc1N1CCOCC1 [Timolol maleate salt] (20 µM)", "Category label": "False"}
{"Compound": "Nc1nc2c(ncn2COC(CO)CO)c(=O)[nH]1 [Ganciclovir] (20 µM)", "Category label": "False"}
{"Compound": "Cc1onc(-c2ccccc2)c1-c1ccc(S(N)(=O)=O)cc1 [Valdecoxib] (20 µM)", "Category label": "False"}
{"Compound": "CCCCOc1ccc(C(=O)CCN2CCCCC2)cc1 [Dyclonine hydrochloride] (20 µM)", "Category label": "False"}
{"Compound": "Cc1cc2c(cc1S(N)(=O)=O)S(=O)(=O)CCC2 [Meticrane] (20 µM)", "Category label": "False"}
{"Compound": "COc1ccc(-c2cc(=O)c3c(O)cc(O[C@@H]4O[C@H](CO[C@@H]5O[C@@H](C)[C@H](O)[C@@H](O)[C@H]5O)[C@@H](O)[C@H](O)[C@H]4O)cc3o2)cc1O [Diosmin] (20 µM)", "Category label": "False"}
{"Compound": "CC(COc1ccccc1)N(CCCl)Cc1ccccc1 (configuration not stated) [Phenoxybenzamine hydrochloride] (20 µM)", "Category label": "False"}
{"Compound": "C[C@H]1[C@H](OC(=O)CCC(=O)O)O[C@@H]2O[C@@]3(C)CC[C@H]4[C@H](C)CC[C@@H]1[C@@]24OO3 [Artesunate] (20 µM)", "Category label": "False"}
{"Compound": "CC(Oc1ccccc1)C(=O)N[C@@H]1C(=O)N2[C@@H]1SC(C)(C)[C@@H]2C(=O)O (some centres not stated) [Phenethicillin potassium salt] (20 µM)", "Category label": "True"}
{"Compound": "CNCC(O)c1ccc(OC(=O)C(C)(C)C)c(OC(=O)C(C)(C)C)c1 (configuration not stated) [Dipivefrin hydrochloride] (20 µM)", "Category label": "False"}
{"Compound": "CCCCCCCN(CC)CCCC(O)c1ccc(NS(C)(=O)=O)cc1 (configuration not stated) [Ibutilide fumarate] (20 µM)", "Category label": "False"}
{"Compound": "CCC[C@H](N[C@@H](C)C(=O)N1[C@H](C(=O)O)C[C@@H]2CCCC[C@@H]21)C(=O)OCC [Perindopril] (20 µM)", "Category label": "False"}
{"Compound": "COc1cc(NC(C)CCCN)c2ncccc2c1 (configuration not stated) [Primaquine diphosphate] (20 µM)", "Category label": "False"}
{"Compound": "COc1cc2nc(N3CCN(C(=O)C4CCCO4)CC3)nc(N)c2cc1OC (configuration not stated) [Terazosin hydrochloride] (20 µM)", "Category label": "False"}
{"Compound": "CCC(=O)O[C@]1(C(=O)SCF)[C@H](C)C[C@H]2[C@@H]3C[C@H](F)C4=CC(=O)C=C[C@]4(C)[C@@]3(F)[C@@H](O)C[C@@]21C [Fluticasone propionate] (20 µM)", "Category label": "False"}
{"Compound": "CC(CNC1CCCCC1)OC(=O)c1ccccc1 (configuration not stated) [Hexylcaine hydrochloride] (20 µM)", "Category label": "False"}
{"Compound": "CC(=O)OCC(=O)[C@@]12OC(C)(C)O[C@@H]1C[C@H]1[C@@H]3C[C@H](F)C4=CC(=O)C=C[C@]4(C)[C@@]3(F)[C@@H](O)C[C@@]12C [Fluocinonide] (20 µM)", "Category label": "False"}

###

- Tested on: Klebsiella aerogenes DSM 30053
- Test name: fold change of Cadaverine concentration vs plate DMSO controls (fold change (ratio)); higher = more amine produced, active = hit call of the paper (significant change in both replicates, either direction)
- Condition details: incubation time: 27 h, anaerobic, 37 °C
Counter-ions that a name gives are not always drawn.
fold change of Cadaverine concentration: recorded values
Recorded metric: fold change of Cadaverine concentration

{"Compound": "COC(=O)C1=C(C)NC(C)=C(C(=O)OC(C)C)C1c1cccc2nonc12 (stereo not drawn) [Isradipine] (20 µM)", "Recorded result": 1}
{"Compound": "CC(C)CN(C[C@@H](O)[C@H](Cc1ccccc1)NC(=O)O[C@H]1CO[C@H]2OCC[C@H]21)S(=O)(=O)c1ccc(N)cc1 [Darunavir] (20 µM)", "Recorded result": 0.996}
{"Compound": "CC(=O)O[C@]1(C(C)=O)CC[C@H]2[C@@H]3C=C(Cl)C4=CC(=O)CC[C@]4(C)[C@H]3CC[C@@]21C [Chlormadinone acetate] (20 µM)", "Recorded result": 0.995}
{"Compound": "Cc1ccc2c([nH]c(=O)c3c(=O)cc(C(=O)OCCC(C)C)oc32)c1C [Repirinast] (20 µM)", "Recorded result": 0.998}
{"Compound": "CC(C)(C)C(=O)OCOC(=O)[C@@H]1N2C(=O)[C@@H](/N=C/N3CCCCCC3)[C@H]2SC1(C)C [Pivmecillinam hydrochloride] (20 µM)", "Recorded result": 1.01}
{"Compound": "O=C(CO)[C@@H](O)[C@H](O)[C@@H](CO)O[C@H]1O[C@H](CO)[C@@H](O)[C@H](O)[C@H]1O [Leucrose] (50 µM)", "Recorded result": 0.992}
{"Compound": "CC(=O)Oc1ccc(C(c2ccc(OC(C)=O)cc2)c2ccccn2)cc1 [Bisacodyl] (20 µM)", "Recorded result": 0.998}
{"Compound": "COc1cc(Cc2cnc(N)nc2N)cc(OC)c1OC [Trimethoprim] (20 µM)", "Recorded result": 1}
{"Compound": "OC(CCN1CCCC1)(c1ccccc1)C1CCCCC1 (stereo not drawn) [Procyclidine hydrochloride] (20 µM)", "Recorded result": 1.04}
{"Compound": "CCCCCCCCCCCCCCCC[N+](C)(C)CCN(Cc1ccc(OC)cc1)c1ncccn1 [Thonzonium bromide] (20 µM)", "Recorded result": 0.995}
{"Compound": "CC(=O)Nc1ccc(O)cc1 [Acetaminophen] (20 µM)", "Recorded result": 0.993}
{"Compound": "CC(=O)OC[C@H]1O[C@@H]([S-])[C@H](OC(C)=O)[C@@H](OC(C)=O)[C@@H]1OC(C)=O.CCP(CC)CC.[Au+] [Auranofin] (20 µM)", "Recorded result": 0.972}
{"Compound": "O=C(N[C@H](CO)[C@H](O)c1ccc([N+](=O)[O-])cc1)C(Cl)Cl [Chloramphenicol] (20 µM)", "Recorded result": 0.383}

Origin of the recorded values: the supplement of paper PMC12494721
